- measured-on: T1, Homo sapiens factor Bb protein (human, UniProt P00751 260-764)
- T1 construct: Bought from CompTech (A155); also called complement factor Bb; human factor Bb
- method-summary: SPR single cycle kinetics; ratio against VH0/Vκ0
reported-endpoint: Relative KD

Would you please look over these solved cases?
Just so you know, measured Relative KD for VH7/Vκ6 (antibody, V domains shown, Redesigned variant; cloned into the appropriate expression vector (IgG4v1 and kappa were used in the first round), HEK EBNA supernatant) VH: EVQLVESGGGLVKPGGSLRLSCAASGFTFSNYAMSWVRQTPEKRLEWVATISNRGSYTYYPDSVKGRFTISRDNAKNSLYLQMNSLRAEDTALYYCARERPMDYWGQGTLVTVSS VL: DIVMTQSPSFLSASVGDRVTITCKASQDVGTAVAWYQQKPGKAPKLLIYWASTRHTGVPDRFTGSGSGTDFTLTISSLQSEDFAVYFCHQHSSNPLTFGQGTKLEIK came out at 10.2

Sample VH0/Vκ0 (Chimeric) (antibody, V domains shown, also called chimeric antibody) VH: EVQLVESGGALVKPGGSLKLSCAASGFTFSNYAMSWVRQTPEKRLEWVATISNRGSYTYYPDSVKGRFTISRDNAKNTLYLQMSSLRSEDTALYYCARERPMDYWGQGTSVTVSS VL: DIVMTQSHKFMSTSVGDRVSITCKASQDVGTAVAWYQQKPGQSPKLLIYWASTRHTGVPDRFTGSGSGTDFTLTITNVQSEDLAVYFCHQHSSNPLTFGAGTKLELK ; Relative KD observed: 1

// Relative KD value for VH0/Vκ7 (antibody, V domains shown, Control antibody of the redesign round; cloned into the appropriate expression vector (IgG4v1 and kappa were used in the first round), HEK EBNA supernatant) VH: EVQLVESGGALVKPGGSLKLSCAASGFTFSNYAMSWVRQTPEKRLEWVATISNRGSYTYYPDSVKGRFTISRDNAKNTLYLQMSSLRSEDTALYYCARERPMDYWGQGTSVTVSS VL: DIQMTQSPSTLSASVGDRVTITCKASQDVGTAVAWYQQKPGKAPKLLIYWASTRHTGVPDRFSGSGSGTDFTLTISSLQAEDFAVYFCHQHSSNPLTFGQGTKLEIK : 1.19

Next:
Noted for VH0/Vκ6 (antibody, V domains shown, Control antibody of the redesign round; cloned into the appropriate expression vector (IgG4v1 and kappa were used in the first round), HEK EBNA supernatant) VH: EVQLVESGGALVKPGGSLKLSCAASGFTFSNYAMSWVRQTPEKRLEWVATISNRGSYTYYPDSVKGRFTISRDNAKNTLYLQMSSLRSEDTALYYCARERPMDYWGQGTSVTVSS VL: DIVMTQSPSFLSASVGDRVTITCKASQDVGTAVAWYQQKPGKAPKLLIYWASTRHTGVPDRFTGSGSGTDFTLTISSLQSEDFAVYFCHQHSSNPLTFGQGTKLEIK : its Relative KD reads 1.34

# binder VH5/Vκ0 (antibody, V domains shown, Control antibody of the redesign round; cloned into the appropriate expression vector (IgG4v1 and kappa were used in the first round), HEK EBNA supernatant) VH: EVQLVESGGGLVKPGGSLRLSCAASGFTFSNYAMSWVRQTPEKRLEWVATISNRGSYTYYPDSVKGRFTISRDNAKNSLYLQMSSLRSEDTALYYCARERPMDYWGQGTSVTVSS VL: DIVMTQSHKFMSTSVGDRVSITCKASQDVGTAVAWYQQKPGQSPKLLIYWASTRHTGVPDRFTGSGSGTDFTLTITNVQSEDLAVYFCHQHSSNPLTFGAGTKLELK ; its Relative KD = 235

The binder identified as VH6/Vκ6 (antibody, V domains shown, Redesigned variant; cloned into the appropriate expression vector (IgG4v1 and kappa were used in the first round)) VH: EVQLVESGGGLVKPGGSLRLSCAASGFTFSNYAMSWVRQAPGKRLEWVATISNRGSYTYYPDSVKGRFTISRDNAKNSLYLQMNSLRAEDTALYYCARERPMDYWGQGTLVTVSS VL: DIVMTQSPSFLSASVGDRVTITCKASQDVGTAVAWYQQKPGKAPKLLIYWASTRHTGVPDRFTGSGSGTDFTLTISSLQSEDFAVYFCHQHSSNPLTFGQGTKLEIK registered its Relative KD at 2.17

Relative KD for VH7/Vκ7 (antibody, V domains shown, Redesigned variant; cloned into the appropriate expression vector (IgG4v1 and kappa were used in the first round); also called VH7/VκK7) VH: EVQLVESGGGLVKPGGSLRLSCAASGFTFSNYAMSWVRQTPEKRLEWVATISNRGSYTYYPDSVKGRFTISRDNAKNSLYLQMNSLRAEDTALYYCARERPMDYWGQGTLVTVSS VL: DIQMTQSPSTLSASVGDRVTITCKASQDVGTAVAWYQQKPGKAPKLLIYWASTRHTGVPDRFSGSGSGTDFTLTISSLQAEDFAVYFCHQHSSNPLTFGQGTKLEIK is 1.37

Data point: VH0/Vκ3 (antibody, V domains shown, constant regions not restated, the humanisation used IgG4v1 heavy chain and kappa light chain vectors) VH: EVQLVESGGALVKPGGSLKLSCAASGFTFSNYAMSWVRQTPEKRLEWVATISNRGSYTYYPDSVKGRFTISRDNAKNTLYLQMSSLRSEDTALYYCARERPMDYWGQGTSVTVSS VL: DIQMTQSPSTLSASVGDRVTITCKASQDVGTAVAWYQQKPGQPPKLLIYWASTRHTGVPDRFSGSGSGTDFTLTISSLQAEDFAVYFCHQHSSNPLTFGQGTKLEIK ; Relative KD = 1.28

The binder VH5/Vκ7 (antibody, V domains shown, Redesigned variant; cloned into the appropriate expression vector (IgG4v1 and kappa were used in the first round), HEK EBNA supernatant) VH: EVQLVESGGGLVKPGGSLRLSCAASGFTFSNYAMSWVRQTPEKRLEWVATISNRGSYTYYPDSVKGRFTISRDNAKNSLYLQMSSLRSEDTALYYCARERPMDYWGQGTSVTVSS VL: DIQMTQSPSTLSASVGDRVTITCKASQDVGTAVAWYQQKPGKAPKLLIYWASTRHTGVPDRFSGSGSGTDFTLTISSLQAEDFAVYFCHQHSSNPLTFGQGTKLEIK showed Relative KD equal to 294

According to the records, this binder VH5/Vκ6 (antibody, V domains shown, Redesigned variant; cloned into the appropriate expression vector (IgG4v1 and kappa were used in the first round), HEK EBNA supernatant) VH: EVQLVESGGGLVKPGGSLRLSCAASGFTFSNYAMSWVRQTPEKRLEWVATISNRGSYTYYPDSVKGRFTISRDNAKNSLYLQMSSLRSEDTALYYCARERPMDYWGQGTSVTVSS VL: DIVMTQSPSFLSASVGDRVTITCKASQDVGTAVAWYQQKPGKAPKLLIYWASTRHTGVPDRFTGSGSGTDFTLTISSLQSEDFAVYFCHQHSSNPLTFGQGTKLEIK displays Relative KD of 73.5
